In this section, each of the molecules is paired with its reported solubility.
- EXPERIMENT DESCRIPTION: Aqueous solubility
- Assay type: physicochemical
- CONDITION CONTEXT: water
# output: bare number, implied unit µg/mL

SMILES CODE	READING UNIT	solubility
CO[C@H]1C[C@@H]2CC[C@@H](C)[C@@](O)(O2)C(=O)C(=O)N2CCCC[C@H]2C(=O)O[C@H]([C@H](C)C[C@@H]2CC[C@@H](OC(=O)C[n+]3cscc3C)[C@H](OC)C2)CC(=O)[C@H](C)/C=C(\C)[C@@H](O)[C@@H](OC)C(=O)[C@H](C)C[C@H](C)/C=C/C=C/C=C/1C	µg/mL	28
CO[C@H]1C[C@@H]2CC[C@@H](C)[C@@](O)(O2)C(=O)C(=O)N2CCCC[C@H]2C(=O)O[C@H]([C@H](C)C[C@@H]2CC[C@@H](O)[C@H](OC)C2)CC(=O)[C@H](C)/C=C(\C)[C@@H](OC(=O)C[n+]2ccccc2)[C@@H](OC)C(=O)[C@H](C)C[C@H](C)/C=C/C=C/C=C/1C	µg/mL	62000
CO[C@H]1C[C@@H]2CC[C@@H](C)[C@@](O)(O2)C(=O)C(=O)N2CCCC[C@H]2C(=O)O[C@H]([C@H](C)C[C@@H]2CC[C@@H](O)[C@H](OC)C2)CC(=O)[C@H](C)/C=C(\C)[C@@H](OC(=O)C[n+]2cscc2C)[C@@H](OC)C(=O)[C@H](C)C[C@H](C)/C=C/C=C/C=C/1C	µg/mL	10000

Attention now turns to another entry.
// query GET /values?readout=solubility&item= `CO[C@H]1C[C@@H]2CC[C@@H](C)[C@@](O)(O2)C(=O)C(=O)N2CCCC[C@H]2C(=O)O[C@H]([C@H](C)C[C@@H]2CC[C@@H](OC(=O)C[n+]3cccc(O)c3)[C@H](OC)C2)CC(=O)[C@H](C)/C=C(\C)[C@@H](O)[C@@H](OC)C(=O)[C@H](C)C[C@H](C)/C=C/C=C/C=C/1C`
// result 10

====

In this section, each of the molecules is paired with its reported solubility.
- EXPERIMENT DESCRIPTION: Aqueous solubility
- Format: physicochemical
- CONDITION CONTEXT: water
# output: bare number, implied unit µg/mL

MOLECULE	solubility / µg/mL
CO[C@H]1C[C@@H]2CC[C@@H](C)[C@@](O)(O2)C(=O)C(=O)N2CCCC[C@H]2C(=O)O[C@H]([C@H](C)C[C@@H]2CC[C@@H](O)[C@H](OC)C2)CC(=O)[C@H](C)/C=C(\C)[C@@H](O)[C@@H](OC)C(=O)[C@H](C)C[C@H](C)/C=C/C=C/C=C/1C [Rapa, Rapamycin, reference compound]	2.6

Attention now turns to another entry.
// query GET /values?readout=solubility&item= CO[C@H]1C[C@@H]2CC[C@@H](C)[C@@](O)(O2)C(=O)C(=O)N2CCCC[C@H]2C(=O)O[C@H]([C@H](C)C[C@@H]2CC[C@@H](OC(=O)C[n+]3ccc(C)cc3)[C@H](OC)C2)CC(=O)[C@H](C)/C=C(\C)[C@@H](O)[C@@H](OC)C(=O)[C@H](C)C[C@H](C)/C=C/C=C/C=C/1C [Compound 6]
// result 6000

====

- EXPERIMENT DESCRIPTION: Aqueous solubility
- Assay type: physicochemical
- CONDITION CONTEXT: ratio of compound solubility to Rapa solubility
PROPERTY MEASURED: Times Increased of Aqueous Solubility (Comp. vs. Rapa)
Form rule: numeric answer, no unit written next to it.

SMILES CODE	ENDPOINT VALUE
CO[C@H]1C[C@@H]2CC[C@@H](C)[C@@](O)(O2)C(=O)C(=O)N2CCCC[C@H]2C(=O)O[C@H]([C@H](C)C[C@@H]2CC[C@@H](OC(=O)C[n+]3csc(C)c3C)[C@H](OC)C2)CC(=O)[C@H](C)/C=C(\C)[C@@H](O)[C@@H](OC)C(=O)[C@H](C)C[C@H](C)/C=C/C=C/C=C/1C	1615
CO[C@H]1C[C@@H]2CC[C@@H](C)[C@@](O)(O2)C(=O)C(=O)N2CCCC[C@H]2C(=O)O[C@H]([C@H](C)C[C@@H]2CC[C@@H](O)[C@H](OC)C2)CC(=O)[C@H](C)/C=C(\C)[C@@H](OC(=O)C[n+]2csc(C)c2C)[C@@H](OC)C(=O)[C@H](C)C[C@H](C)/C=C/C=C/C=C/1C	8962
CO[C@H]1C[C@@H]2CC[C@@H](C)[C@@](O)(O2)C(=O)C(=O)N2CCCC[C@H]2C(=O)O[C@H]([C@H](C)C[C@@H]2CC[C@@H](OC(=O)C[n+]3cccc(C)c3)[C@H](OC)C2)CC(=O)[C@H](C)/C=C(\C)[C@@H](O)[C@@H](OC)C(=O)[C@H](C)C[C@H](C)/C=C/C=C/C=C/1C	2577
CO[C@H]1C[C@@H]2CC[C@@H](C)[C@@](O)(O2)C(=O)C(=O)N2CCCC[C@H]2C(=O)O[C@H]([C@H](C)C[C@@H]2CC[C@@H](OC(=O)C[n+]3cscc3C)[C@H](OC)C2)CC(=O)[C@H](C)/C=C(\C)[C@@H](O)[C@@H](OC)C(=O)[C@H](C)C[C@H](C)/C=C/C=C/C=C/1C	11
CO[C@H]1C[C@@H]2CC[C@@H](C)[C@@](O)(O2)C(=O)C(=O)N2CCCC[C@H]2C(=O)O[C@H]([C@H](C)C[C@@H]2CC[C@@H](O)[C@H](OC)C2)CC(=O)[C@H](C)/C=C(\C)[C@@H](OC(=O)C[n+]2cscc2C)[C@@H](OC)C(=O)[C@H](C)C[C@H](C)/C=C/C=C/C=C/1C	3846
CO[C@H]1C[C@@H]2CC[C@@H](C)[C@@](O)(O2)C(=O)C(=O)N2CCCC[C@H]2C(=O)O[C@H]([C@H](C)C[C@@H]2CC[C@@H](OC(=O)C[n+]3ccc(C)cc3)[C@H](OC)C2)CC(=O)[C@H](C)/C=C(\C)[C@@H](O)[C@@H](OC)C(=O)[C@H](C)C[C@H](C)/C=C/C=C/C=C/1C	2308

Attention now turns to another entry.
// query GET /values?readout=Times Increased of Aqueous Solubility (Comp. vs. Rapa)&item= `CO[C@H]1C[C@@H]2CC[C@@H](C)[C@@](O)(O2)C(=O)C(=O)N2CCCC[C@H]2C(=O)O[C@H]([C@H](C)C[C@@H]2CC[C@@H](OC(=O)C[n+]3cccc(O)c3)[C@H](OC)C2)CC(=O)[C@H](C)/C=C(\C)[C@@H](O)[C@@H](OC)C(=O)[C@H](C)C[C@H](C)/C=C/C=C/C=C/1C`
// result 4
